Tested on: S. enterica typhimurium tolC KO;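 further: active when median AUC fell below 0.1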
test summary: growth AUC normalised to DMSO control (median) (fraction of control); higher = less growth inhibition, active = hit call of the paper
reported conditions: 20 µM
Structures can show the parent of a compound that is named as a salt.
The reader will find reported growth AUC normalised to DMSO control values listed item by item below.
Would you mind answering with just the numeric figure?

| compound | growth AUC normalised to DMSO control |
| --- | --- |
| C#CCN(C)Cc1ccccc1 [Pargyline hydrochloride] | 1.01 |
| CO[C@@]1(NC(=O)Cc2cccs2)C(=O)N2C(C(=O)O)=C(COC(N)=O)CS[C@@H]21 [Cefoxitin sodium salt] | 0.0113 |
| Nc1cc(C(Cl)=C(Cl)Cl)c(S(N)(=O)=O)cc1S(N)(=O)=O [Clorsulon] | 0.999 |
| C=C[C@H]1CN2CC[C@H]1C[C@@H]2[C@@H](O)c1ccnc2ccc(OC)cc12 [Quinidine hydrochloride monohydrate] | 0.997 |
| NC(=O)OCC(O)COc1ccc(Cl)cc1 (centres undefined) [Chlorphensin carbamate] | 0.987 |
| Cc1ncc(C[n+]2csc(CCO)c2C)c(N)n1 [Thiamine hydrochloride] | 0.996 |

# evaluate next
Item Nc1ccccc1S(N)(=O)=O [o-Sulfanilamide] ; assay system S. enterica typhimurium tolC KO; growth AUC normalised to DMSO control reported as 1
